biological target: human Cereblon WT GST-tagged protein (Homo sapiens); construct: purchased CISBIO 64BDCRBNPEH; experiment: CRBN-binding affinity, HTRF (CEREBLON BINDING kit); conditions: read-out: Inhibition Rate at 2 µM (%)
Sequence (Q96SW2 whole entry): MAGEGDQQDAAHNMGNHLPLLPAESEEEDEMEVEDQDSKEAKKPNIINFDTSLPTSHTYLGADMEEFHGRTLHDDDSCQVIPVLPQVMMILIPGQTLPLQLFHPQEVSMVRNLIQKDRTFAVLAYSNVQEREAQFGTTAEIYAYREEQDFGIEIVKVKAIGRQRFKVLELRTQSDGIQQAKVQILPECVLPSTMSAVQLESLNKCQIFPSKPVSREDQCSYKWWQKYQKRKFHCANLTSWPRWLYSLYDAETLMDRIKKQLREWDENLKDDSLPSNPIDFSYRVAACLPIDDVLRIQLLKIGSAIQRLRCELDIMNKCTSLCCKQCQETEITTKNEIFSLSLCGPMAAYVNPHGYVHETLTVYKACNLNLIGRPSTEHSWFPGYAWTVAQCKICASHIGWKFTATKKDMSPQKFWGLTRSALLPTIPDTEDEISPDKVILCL
OBSERVATION TYPE: inhibition at 2 µM

Check out these entries, answers already filled in.
O=C1CCC(N2Cc3ccc(CN4C[C@H]5C[C@@H]4CN5c4ccc(-c5cc(F)c6c(c5)C(=O)N(C(C(=O)Nc5nccs5)c5ncn7c5CCC7)C6)cc4)cc3C2=S)C(=O)N1 (stereo partly drawn); 60 to 80%
CC(=O)c1c(C)c2cnc(Nc3ccc(N4CCN(Cc5ccc6c(c5)C(=S)N(C5CCC(=O)NC5=O)C6)CC4)cn3)nc2n(C2CCCC2)c1=O (stereo not drawn); 60 to 80%
Cn1ncc(-c2nc(NC3CCN(Cc4ccc5c(c4)C(=S)N(C4CCC(=O)NC4=O)C5)CC3)ncc2Cl)c1CC1CC1 (stereo not drawn); 80 to 100%
CCc1cc2c(cc1N1CCC(N3CCN(Cc4ccc5c(c4)C(=S)N(C4CCC(=O)NC4=O)C5)CC3)CC1)C(C)(C)c1[nH]c3cc(C#N)ccc3c1C2=O (stereo not drawn); 60 to 80%
Nc1ncnc2c1c(-c1ccc(Oc3ccccc3)cc1)nn2C1CCN(Cc2ccc3c(c2)C(=S)N(C2CCC(=O)NC2=O)C3)CC1 (stereo not drawn); 80 to 100%

Record request: inhibition at 2 µM value, item CN(C)C(=O)c1cc2cnc(Nc3ccc(N4CCN(Cc5cccc6c5CN(C5CCC(=O)NC5=O)C6=S)CC4)cn3)nc2n1C1CCCC1 (stereo not drawn)
80 to 100%
